System: DMS 114 small cell lung
Experimental details: NCI tumour cell line growth inhibition, 48 h
Below: a set of entries, each annotated with reported TGI.

Chem smiles: COc1ccc(/C(Cl)=C(\C=O)c2ccc(Cl)c(Cl)c2)cc1
TGI: 18 µM

Chem smiles: O=C(O)CSc1ccc2[nH]c3ccccc3c(=O)c2c1
TGI: > 100 µM

Chem smiles: CC(C)OP(=O)(OC(C)C)C([CH2][Sn]([CH3])([CH3])[Cl])P(=O)(OC(C)C)OC(C)C
TGI: 67 µM

Chem smiles: C/C(=N\NC(C)(C)C)c1sc(-c2nc(C)c(/C(C)=N/NC(C)(C)C)s2)nc1C
TGI: > 100 µM

###

Tested on: HOP-92 NSCLC
Experimental details: NCI tumour cell line growth inhibition, 48 h
Value kind: TGI (µM)

Chem smiles: S=C(N/N=C/c1ccccc1)NC12CC3CC(CC(C3)C1)C2
Value kind: TGI
Units label: µM
Operator symbol: =
Value observed: 56.2

Chem smiles: CCOC(=O)c1nc2ccccc2nc1Nc1ccc(Cl)c(Cl)c1
Value kind: TGI
Units label: µM
Operator symbol: =
Value observed: 44.5

Chem smiles: O=c1c(O)c(-c2ccccc2)n(O)c2ccc(Cl)cc12
Value kind: TGI
Units label: µM
Operator symbol: =
Value observed: 96.5

Chem smiles: CN(C)CCc1ccc(Cl)cc1Cl
Value kind: TGI
Units label: µM
Operator symbol: >
Value observed: 100

###

Tested on: M14 melanoma
Experimental details: NCI tumour cell line growth inhibition, 48 h
Where a SMILES comes first, the peptide text is derived from it. The star is where a group is joined. Boc = CC(C)(C)OC(=O)*

Compound: CC(NC(=O)OC(C)(C)C)C(=O)NC(Cc1ccccc1)C(=O)NCC(=O)O (stereo not drawn) (Boc-Ala-Phe-Gly-OH; configuration not given here)
System tested: M14 melanoma
TGI: > 100 µM

Compound: COc1ccc(N2C(=O)C3c4[nH]c5ccc(C)cc5c4C4CCC(c5ccccc5)CC4C3C2=O)cc1 (stereo not drawn)
System tested: M14 melanoma
TGI: > 100 µM

Compound: O=C(Nc1ccccc1)c1cc(S(=O)(=O)Nc2nc3ncccc3[nH]2)c(SSc2cc(Cl)c(C(=O)Nc3ccccc3)cc2S(=O)(=O)Nc2nc3ncccc3[nH]2)cc1Cl
System tested: M14 melanoma
TGI: > 100 µM

###

Below: a set of entries, each annotated with reported GI50.
Tested on: SF-295 CNS
Experimental details: NCI tumour cell line growth inhibition, 48 h

Molecule: CCCN1C(=O)/C(=C/c2cccc(O)c2)SC1=Nc1ccccc1
System tested: SF-295 CNS
GI50: 19 µM
//
Molecule: Nc1cc(N)c2nc(-c3ccccc3)c(Sc3ccc(Cl)c(Cl)c3)nc2c1
System tested: SF-295 CNS
GI50: 17.7 µM
//
Molecule: CCOc1ccc2nc(S/C(=C/C=C(C#N)C#N)c3ccc(Cl)cc3)sc2c1
System tested: SF-295 CNS
GI50: 9.85 µM
//
Molecule: CC(=O)CC(=O)Nc1c(C)[c]([Hg][O]C(C)=O)c(C)[c]([Hg][O]C(C)=O)[c]1[Hg][O]C(C)=O
System tested: SF-295 CNS
GI50: 18.5 µM
//
Molecule: O=C1c2ccccc2C(=O)c2c1ccc(C(Br)Br)c2Cl
System tested: SF-295 CNS
GI50: 11.7 µM
//
Molecule: CCOC(=O)c1ccc2[nH]c(O)c(C(=Nc3ccc(N(C)C(=O)CN4CCN(C)CC4)cc3)c3ccccc3)c2c1
System tested: SF-295 CNS
GI50: 0.894 µM
//
Molecule: CSCCC(NC(=O)CNC(=O)C(CC(=O)O)NC(=O)C(NC(=O)C(NC(=O)C(NC(=O)CNC(=O)C(CCC(N)=O)NC(=O)C(CCSC)NC(=O)C(CC(=O)O)NC(=O)C(C)NC(=O)C(C)NC(=O)C(NC(=O)C(CO)NC(=O)C(N)CC(C)C)C(C)O)C(C)C)C(C)C)C(C)O)C(=O)NC(C)C(=O)NC(CO)C(=O)NCC(=O)NC(CC(C)C)C(=O)NC(CC(=O)O)C(=O)NC(CCCCN)C(=O)NC(CC(=O)O)C(=O)NC(Cc1ccc(O)cc1)C(=O)NC(CC(C)C)C(=O)NC(CCCCN)C(=O)N1CCCC1C(=O)NC(CC(=O)O)C(=O)NC(CC(=O)O)C(=O)O (stereo unspecified)
System tested: SF-295 CNS
GI50: > 82.5 µM
//
Molecule: COc1cc(-c2cc(/C=C/C(=O)c3ccc(N)cc3)[nH]n2)cc(OC)c1OC
System tested: SF-295 CNS
GI50: 2.55 µM
//
Molecule: O=C(COc1cccc(/C=C2/Oc3ccccc3C2=O)c1)Nc1nccs1
System tested: SF-295 CNS
GI50: 36.4 µM
//
Molecule: O=C1/C(=C/c2ccc(O)c(O)c2)COc2ccc(-c3ccccc3)cc21
System tested: SF-295 CNS
GI50: 2.84 µM
//
Molecule: Cn1c2c(c3ccc(-c4ccn[nH]4)cc3c1=O)C(=O)c1ccccc1-2
System tested: SF-295 CNS
GI50: 3.81 µM
